CC50 at 72 h: recorded values
experiment: Cytotoxicity evaluation on HepG2 cell line (MTT); assay type: cell-based; settings: human, HepG2 cells

Ask: Dear colleague, I am looking for the recorded CC50 at 72 h of the following compound: O=[N+]([O-])c1c(CS(=O)(=O)c2ccc(Cl)cc2)nc2c(Br)cc(Cl)cn12 [Compound 2d]
Reply: > 12.5 µM

Ask: Dear colleague, I am looking for the recorded CC50 at 72 h of the following compound: O=[N+]([O-])c1c(CS(=O)(=O)c2ccc(O)cc2)nc2c(Br)cc(Cl)cn12 [Compound 2c]
Reply: > 3.9 µM

Ask: Dear colleague, I am looking for the recorded CC50 at 72 h of the following compound: CSc1ccc(OCc2ncc([N+](=O)[O-])n2C)cc1 [Fexinidazole, reference compound]
Reply: > 100 µM

Ask: Dear colleague, I am looking for the recorded CC50 at 72 h of the following compound: O=[N+]([O-])c1c(CS(=O)(=O)c2ccc(OC(F)(F)F)cc2)nc2c(Br)cc(Cl)cn12 [Compound 2f]
Reply: > 25 µM

Ask: Dear colleague, I am looking for the recorded CC50 at 72 h of the following compound: O=[N+]([O-])c1c(CS(=O)(=O)c2ccccc2)nc2c(Br)cc(Cl)cn12 [Hit A, reference compound]
Reply: > 15.6 µM

Ask: Dear colleague, I am looking for the recorded CC50 at 72 h of the following compound: O=[N+]([O-])c1c(CS(=O)(=O)c2ccc(C(F)(F)F)cc2)nc2c(Sc3ccc(Cl)cc3)cc(Cl)cn12 [Compound 3d]
Reply: > 3.9 µM

Ask: Dear colleague, I am looking for the recorded CC50 at 72 h of the following compound: O=[N+]([O-])c1c(CS(=O)(=O)c2ccc(F)cc2)nc2c(Cl)cc(Cl)cn12 [Compound 1c]
Reply: > 7.8 µM

Ask: Dear colleague, I am looking for the recorded CC50 at 72 h of the following compound: COc1ccc(S(=O)(=O)Cc2nc3c(Br)cc(Cl)cn3c2[N+](=O)[O-])cc1 [Compound 2g]
Reply: 3.9 µM

Ask: Dear colleague, I am looking for the recorded CC50 at 72 h of the following compound: CC(C)S(=O)(=O)Cc1nc2c(Sc3ccc(Cl)cc3)cc(Cl)cn2c1[N+](=O)[O-] [Compound 3g]
Reply: 22.2 µM

Ask: Dear colleague, I am looking for the recorded CC50 at 72 h of the following compound: O=[N+]([O-])c1c(CS(=O)(=O)c2ccccc2)nc2c(Sc3ccc(Cl)cc3)cc(Cl)cn12 [Hit B, reference compound]
Reply: > 100 µM

Ask: Dear colleague, I am looking for the recorded CC50 at 72 h of the following compound: O=[N+]([O-])c1c(CS(=O)(=O)CCC(F)(F)F)nc2c(Br)cc(Cl)cn12 [Compound 2j]
Reply: 42.9 µM

Ask: Dear colleague, I am looking for the recorded CC50 at 72 h of the following compound: CC(C)S(=O)(=O)Cc1nc2c(Br)cc(Cl)cn2c1[N+](=O)[O-] [Compound 2h]
Reply: > 62.5 µM

Ask: Dear colleague, I am looking for the recorded CC50 at 72 h of the following compound: O=[N+]([O-])c1c(CS(=O)(=O)CCC(F)(F)F)nc2c([S+]([O-])c3ccc(Cl)cc3)cc(Cl)cn12 (stereo not drawn) [Compound 6a]
Reply: > 5 µM

Ask: Dear colleague, I am looking for the recorded CC50 at 72 h of the following compound: O=[N+]([O-])c1c(CS(=O)(=O)c2ccc(F)cc2)nc2c(Sc3ccc(Cl)cc3)cc(Cl)cn12 [Compound 3c]
Reply: > 15.6 µM

Ask: Dear colleague, I am looking for the recorded CC50 at 72 h of the following compound: O=[N+]([O-])c1c(CS(=O)(=O)CCC(F)(F)F)nc2c(-c3ccncc3)cc(Cl)cn12 [Compound 7]
Reply: > 100 µM
